molecular target: 5-HT1D (Homo sapiens, UniProt P28221); test: Radioligand binding, 5-HT1D; conditions: read-out: Binding affinity Ki (nM), 5-HT1D; radioligand binding
Sequence (P28221 whole entry, species assumed): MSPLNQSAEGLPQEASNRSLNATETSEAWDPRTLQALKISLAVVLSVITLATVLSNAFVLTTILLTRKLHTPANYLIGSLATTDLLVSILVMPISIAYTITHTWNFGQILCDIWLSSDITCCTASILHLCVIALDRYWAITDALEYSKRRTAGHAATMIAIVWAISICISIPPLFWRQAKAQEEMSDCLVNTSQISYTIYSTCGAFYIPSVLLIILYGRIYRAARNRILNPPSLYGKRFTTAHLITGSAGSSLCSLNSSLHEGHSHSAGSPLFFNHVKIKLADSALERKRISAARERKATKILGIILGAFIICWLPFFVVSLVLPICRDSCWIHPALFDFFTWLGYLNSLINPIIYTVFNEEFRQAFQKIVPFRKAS
Quantity measured: Ki (nM)
Form entry: value (nM) — number only.

Data request: Answer with reported Ki of `CNc1nc2cc(OCCCCN3CCN(c4cccc(Cl)c4Cl)CC3)ccc2s1`
Data returned: 390

---

For each record, write down the corresponding Ki.
molecular target: 5-HT1A (Homo sapiens, UniProt P08908); experiment: Radioligand binding, 5-HT1A; conditions: Binding affinity Ki (nM), 5-HT1A
Sequence (P08908 whole entry, species assumed): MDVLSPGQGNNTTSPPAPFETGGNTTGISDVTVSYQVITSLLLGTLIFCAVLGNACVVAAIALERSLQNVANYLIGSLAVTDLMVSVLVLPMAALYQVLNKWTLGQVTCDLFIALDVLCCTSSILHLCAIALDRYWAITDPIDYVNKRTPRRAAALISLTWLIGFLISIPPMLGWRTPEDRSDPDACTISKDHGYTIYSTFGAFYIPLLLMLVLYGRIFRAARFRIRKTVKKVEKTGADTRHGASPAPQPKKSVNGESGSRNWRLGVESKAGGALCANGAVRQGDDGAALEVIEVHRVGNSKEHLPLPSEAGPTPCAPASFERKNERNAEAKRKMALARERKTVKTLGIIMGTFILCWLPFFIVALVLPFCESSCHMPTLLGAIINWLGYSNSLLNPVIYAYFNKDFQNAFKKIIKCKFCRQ
Form entry: value (nM) — number only.

Data request: Answer with reported Ki of CNc1nc2cc(OCCCCN3CCC(c4cccc(Cl)c4Cl)CC3)ccc2s1 [Compound 54]
Data returned: 66

Data request: Answer with reported Ki of Cc1nc2cc(OCCCCN3CCN(c4cccc(Cl)c4Cl)CC3)ccc2s1 [Compound 1]
Data returned: 86

Data request: Answer with reported Ki of CCc1nc2cc(OCCCCN3CCC(c4cccc(Cl)c4Cl)CC3)ccc2s1 [Compound 46]
Data returned: 100

Data request: Answer with reported Ki of Cc1ccc2cccc(N3CCN(CCCCOc4ccc5sc(C(C)C)nc5c4)CC3)c2n1 [Compound 49]
Data returned: 14

Data request: Answer with reported Ki of CC(C)c1nc2cc(OCCCCN3CCN(c4cccc5c4OCCO5)CC3)ccc2s1 [Compound 53]
Data returned: 1.4
